# procedure summary: Clearance in monkey at 1 mg/kg, iv
# Format: ADME, organism-based, Macaca mulatta
# applied conditions: rhesus monkey, in vivo
measurement kind: clearance (mL/min/kg)

a = COc1ccc2c(c1)C(=O)N(C[C@@]1(c3cc4cnccc4o3)NC(=O)NC1=O)C2
b = COc1ccc2c(c1)C(=O)N(C[C@@]1(c3cc4ncccc4o3)NC(=O)NC1=O)C2
Pick one: a or b . Which one has the lower reported clearance? Your answer should be the label attached to the chosen record. a

###

# target desc: Matrilysin (Homo sapiens, UniProt P09237)
# Sequence (P09237 whole entry): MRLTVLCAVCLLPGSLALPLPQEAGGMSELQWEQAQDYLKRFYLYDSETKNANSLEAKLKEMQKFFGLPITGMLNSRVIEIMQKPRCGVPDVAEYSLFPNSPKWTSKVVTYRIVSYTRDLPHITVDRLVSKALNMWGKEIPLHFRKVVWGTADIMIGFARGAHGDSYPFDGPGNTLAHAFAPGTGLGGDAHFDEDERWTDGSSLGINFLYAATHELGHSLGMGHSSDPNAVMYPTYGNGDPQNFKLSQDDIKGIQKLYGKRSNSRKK
measurement kind: IC50

// returns reported IC50 for input `COc1ccc2c(c1)C(=O)N(C[C@@]1(c3cc4cnccc4o3)NC(=O)NC1=O)C2` > 40 µM

###

# procedure summary: Permeability from apical side to basolateral side in human Caco2 cells
# Assay type: ADME, cell-based
# applied conditions: Caco-2, read-out: permeability
measurement kind: Papp A→B (×10⁻⁶ cm/s)

For orientation, consider the following solved cases.
- structure smiles: "COc1ccc2c(c1)C(=O)N(C[C@@]1(c3cc4nc(N(c5cn[nH]c5)C5CCNCC5)ccc4o3)NC(=O)NC1=O)C2"
  scale unit: "×10⁻⁶ cm/s"
  Papp A→B: 0.22
- structure smiles: "COc1ccc2c(c1)C(=O)N(C[C@@]1(C#Cc3cccnc3)NC(=O)NC1=O)C2"
  scale unit: "×10⁻⁶ cm/s"
  Papp A→B: 1.6
- structure smiles: "COc1ccc2c(c1)C(=O)N(C[C@@]1(c3cc4ncccc4o3)NC(=O)NC1=O)C2"
  scale unit: "×10⁻⁶ cm/s"
  Papp A→B: 1.2
- structure smiles: "COc1ccc2c(c1)C(=O)N(C[C@@]1(c3cc4cnccc4o3)NC(=O)NC1=O)C2"
  scale unit: "×10⁻⁶ cm/s"
  Papp A→B: 1.5

1 = COc1ccc2c(c1)C(=O)N(C[C@@]1(c3cc4cnc(C)cc4o3)NC(=O)NC1=O)C2
2 = COc1ccc2c(c1)C(=O)N(C[C@@]1(c3cc4nc(N(c5cn[nH]c5)C5CCN(C)CC5)ccc4o3)NC(=O)NC1=O)C2
Pick one: 1 or 2 . Which one has the lower reported Papp A→B? Your answer should be the label attached to the chosen record. 2
(2: 0.1 ×10⁻⁶ cm/s, 1: 2.05 ×10⁻⁶ cm/s)

###

# target desc: Stromelysin-1 (Homo sapiens, UniProt P08254)
# Sequence (P08254 whole entry): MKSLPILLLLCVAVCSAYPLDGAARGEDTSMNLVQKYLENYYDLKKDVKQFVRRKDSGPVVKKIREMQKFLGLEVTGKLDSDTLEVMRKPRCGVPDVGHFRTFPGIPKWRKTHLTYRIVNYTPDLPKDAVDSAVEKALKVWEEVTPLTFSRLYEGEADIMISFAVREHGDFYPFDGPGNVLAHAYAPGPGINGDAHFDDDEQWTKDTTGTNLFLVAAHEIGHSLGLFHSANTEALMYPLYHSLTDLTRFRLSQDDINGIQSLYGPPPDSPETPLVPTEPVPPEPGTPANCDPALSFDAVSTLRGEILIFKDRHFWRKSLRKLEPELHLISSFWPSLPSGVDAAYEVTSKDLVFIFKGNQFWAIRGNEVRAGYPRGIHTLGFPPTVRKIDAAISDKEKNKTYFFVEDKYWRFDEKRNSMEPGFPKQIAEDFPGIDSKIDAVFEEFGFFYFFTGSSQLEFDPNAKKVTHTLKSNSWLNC
measurement kind: IC50 (µM)
Report as a plain number; the unit µM is understood.

// returns reported IC50 for input `COc1ccc2c(c1)C(=O)N(C[C@@]1(c3cc4cnccc4o3)NC(=O)NC1=O)C2` 5.5

###

# procedure summary: AUC in monkey at 3 mg/kg, po
# Assay type: ADME, organism-based, Macaca mulatta
# applied conditions: rhesus monkey, in vivo
measurement kind: AUC (µM·h)

P = COc1ccc2c(c1F)C(=O)N(C[C@@]1(c3cc4cnc(C)cc4o3)NC(=O)NC1=O)C2
Q = COc1ccc2c(c1)C(=O)N(C[C@@]1(c3cc4cnccc4o3)NC(=O)NC1=O)C2
Which value of AUC is greater, the one for P or the one for Q ? Your answer should be the label attached to the chosen record. Q
(Q: 10 µM·h, P: 1.5 µM·h)

###

# procedure summary: Oral bioavailability in monkey at 3 mg/kg
# Assay type: ADME, organism-based, Macaca mulatta
# applied conditions: rhesus monkey, in vivo
measurement kind: bioavailability (%)
Report as a plain number; the unit % is understood.

// returns reported bioavailability for input `COc1ccc2c(c1)C(=O)N(C[C@@]1(c3cc4cnccc4o3)NC(=O)NC1=O)C2` 19

###

# procedure summary: AUC in monkey at 10 mg/kg, po
# Format: ADME, organism-based, Macaca mulatta
# applied conditions: rhesus monkey, in vivo
measurement kind: AUC (µM·h)
Report as a plain number; the unit µM·h is understood.

// returns reported AUC for input `COc1ccc2c(c1)C(=O)N(C[C@@]1(c3cc4ncccc4o3)NC(=O)NC1=O)C2` 22

###

# procedure summary: AUC in rat
# Format: ADME
# Set-up: concentration or dose not given beside the values
# applied conditions: in vivo
measurement kind: AUC (µM·h)

- structure smiles: "COc1ccc2c(c1F)C(=O)N(C[C@@]1(c3cc4nc(N5CC(=O)NC5=O)c(F)cc4o3)NC(=O)NC1=O)C2"
  scale unit: "µM·h"
  AUC: 3.2

A = COc1ccc2c(c1)C(=O)N(C[C@@]1(c3cn4cccnc4n3)NC(=O)NC1=O)C2
B = COc1ccc2c(c1)C(=O)N(C[C@@]1(c3cc4nc(-n5cccn5)ccc4o3)NC(=O)NC1=O)C2
C = COc1ccc2c(c1)C(=O)N(C[C@@]1(c3cc4nc(N)ccc4o3)NC(=O)NC1=O)C2
D = COc1ccc2c(c1)C(=O)N(C[C@@]1(c3cc4cnccc4o3)NC(=O)NC1=O)C2
Sequence the entries by AUC, beginning with the highest number. Please respond by ranking the labels in the order requested. B, D, A, C

###

# target desc: Matrix metalloproteinase-14 (Homo sapiens, UniProt P50281)
measurement kind: pIC50
The value called pIC50 is obtained by taking minus log10 of the concentration in mol/L.

// returns reported pIC50 for input `COc1ccc2c(c1)C(=O)N(C[C@@]1(c3cc4cnccc4o3)NC(=O)NC1=O)C2` 6.62

###

# procedure summary: AUC in rat at 10 mg/kg, po
# Assay type: ADME, organism-based
# applied conditions: in vivo
measurement kind: AUC (µM·h)

- structure smiles: "COc1ccc2c(c1)C(=O)N(C[C@@]1(c3cc4ncccc4o3)NC(=O)NC1=O)C2"
  measurement kind: "AUC"
  numeric value: 10
- structure smiles: "COc1ccc2c(c1F)C(=O)N(C[C@@]1(c3cc4cnc(C)cc4o3)NC(=O)NC1=O)C2"
  measurement kind: "AUC"
  numeric value: 13.4
- structure smiles: "COc1ccc2c(c1)C(=O)N(C[C@@]1(c3cc4cnccc4o3)NC(=O)NC1=O)C2"
  measurement kind: "AUC"
  numeric value: 11

###

# procedure summary: Oral bioavailability in monkey at 10 mg/kg
# Format: ADME, organism-based, Macaca mulatta
# applied conditions: rhesus monkey, in vivo
measurement kind: bioavailability (%)
Report as a plain number; the unit % is understood.

// returns reported bioavailability for input `COc1ccc2c(c1)C(=O)N(C[C@@]1(c3cc4ncccc4o3)NC(=O)NC1=O)C2` 46

###

# procedure summary: Clearance in rat at 3 mg/kg, iv
# Format: ADME, organism-based
# applied conditions: in vivo
measurement kind: clearance (mL/min/kg)

A = COc1ccc2c(c1)C(=O)N(C[C@@]1(c3cc4ncccc4o3)NC(=O)NC1=O)C2
B = COc1ccc2c(c1)C(=O)N(C[C@@]1(c3cc4cnccc4o3)NC(=O)NC1=O)C2
Pick one: A or B . Which one has the lower reported clearance? Your answer should be the label attached to the chosen record. A

###

What follows is a collection of Ki values obtained with Disintegrin and metalloproteinase domain-containing protein 17 (Homo sapiens).
measurement kind: Ki (nM)

a = COc1ccc2c(c1)C(=O)N(C[C@@]1(c3cc4nc(-n5cccn5)ccc4o3)NC(=O)NC1=O)C2
b = COc1ccc2c(c1)C(=O)N(C[C@@]1(c3cc4c(N5CCNCC5)nccc4o3)NC(=O)NC1=O)C2
Pick one: a or b . Which one has the lower reported Ki? Your answer should be the label attached to the chosen record. a
(a: 0.4 nM, b: 2.5 nM)

a = COc1ccc2c(c1)C(=O)N(C[C@@]1(c3cc4cncc(F)c4o3)NC(=O)NC1=O)C2
b = COc1ccc2c(c1)C(=O)N(C[C@@]1(c3cc4cncc(N)c4o3)NC(=O)NC1=O)C2
Which value of Ki is greater, the one for a or the one for b ? Your answer should be the label attached to the chosen record. a

###

# procedure summary: AUC in dog at 3 mg/kg, po
# Format: ADME, organism-based, Canis lupus familiaris
# applied conditions: in vivo
measurement kind: AUC (µM·h)

- structure smiles: "COc1ccc2c(c1)C(=O)N(C[C@@]1(c3cc4cnccc4o3)NC(=O)NC1=O)C2"
  scale unit: "µM·h"
  numeric value: 52
- structure smiles: "COc1ccc2c(c1)C(=O)N(C[C@@]1(c3cc4ncccc4o3)NC(=O)NC1=O)C2"
  scale unit: "µM·h"
  numeric value: 41

###

# target desc: Disintegrin and metalloproteinase domain-containing protein 17 (Homo sapiens, UniProt P78536)
# Sequence (P78536 whole entry, the tested form may be a part): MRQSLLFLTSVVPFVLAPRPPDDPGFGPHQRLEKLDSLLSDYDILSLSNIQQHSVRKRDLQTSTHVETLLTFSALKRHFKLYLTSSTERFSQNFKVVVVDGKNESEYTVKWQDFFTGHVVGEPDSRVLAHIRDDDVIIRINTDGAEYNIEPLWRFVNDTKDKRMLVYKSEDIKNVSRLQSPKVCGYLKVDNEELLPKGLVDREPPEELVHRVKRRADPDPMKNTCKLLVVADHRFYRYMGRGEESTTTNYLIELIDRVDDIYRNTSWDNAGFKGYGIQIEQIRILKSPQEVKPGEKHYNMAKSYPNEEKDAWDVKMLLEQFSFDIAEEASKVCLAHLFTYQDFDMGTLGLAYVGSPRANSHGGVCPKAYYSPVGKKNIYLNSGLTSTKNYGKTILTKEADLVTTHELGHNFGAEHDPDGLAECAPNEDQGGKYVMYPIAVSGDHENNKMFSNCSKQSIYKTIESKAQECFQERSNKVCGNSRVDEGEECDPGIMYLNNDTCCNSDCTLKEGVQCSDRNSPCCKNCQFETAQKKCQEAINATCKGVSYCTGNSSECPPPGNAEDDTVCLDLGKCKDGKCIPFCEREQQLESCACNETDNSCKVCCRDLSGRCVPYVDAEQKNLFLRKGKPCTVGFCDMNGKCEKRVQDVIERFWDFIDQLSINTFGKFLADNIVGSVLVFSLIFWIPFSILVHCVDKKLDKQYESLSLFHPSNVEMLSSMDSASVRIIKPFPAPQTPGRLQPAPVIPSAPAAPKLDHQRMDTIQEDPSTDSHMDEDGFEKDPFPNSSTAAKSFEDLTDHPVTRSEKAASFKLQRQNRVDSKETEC
measurement kind: Ki (nM)

- structure smiles: "COc1ccc2c(c1F)C(=O)N(C[C@@]1(c3cc4nc(N5CCNC(=O)C5)ccc4o3)NC(=O)NC1=O)C2"
  Ki [nM]: 0.6
- structure smiles: "COc1ccc2c(c1)C(=O)N(C[C@@]1(c3cc4c(C#N)nccc4o3)NC(=O)NC1=O)C2"
  Ki [nM]: 0.7
- structure smiles: "COc1ccc2c(c1)C(=O)N(C[C@@]1(c3cc4cccnc4o3)NC(=O)NC1=O)C2"
  Ki [nM]: 0.7
- structure smiles: "COc1ccc2c(c1)C(=O)N(C[C@@]1(c3cc4cnc(C)cc4o3)NC(=O)NC1=O)C2"
  Ki [nM]: 0.4
- structure smiles: "COc1ccc2c(c1F)C(=O)N(C[C@@]1(c3cc4cnc(C)cc4o3)NC(=O)NC1=O)C2"
  Ki [nM]: 0.4
- structure smiles: "COc1ccc2c(c1)C(=O)N(C[C@@]1(c3cc4c(-c5cn[nH]c5)nccc4o3)NC(=O)NC1=O)C2"
  Ki [nM]: 0.2
- structure smiles: "COc1ccc2c(c1)C(=O)N(C[C@@]1(c3cc4nc(N(c5cn[nH]c5)C5CCN(C)CC5)ccc4o3)NC(=O)NC1=O)C2"
  Ki [nM]: 1
- structure smiles: "COc1ccc2c(c1)C(=O)N(C[C@@]1(c3cc4cncc(C)c4o3)NC(=O)NC1=O)C2"
  Ki [nM]: 0.5
- structure smiles: "COc1ccc2c(c1F)C(=O)N(C[C@@]1(c3cc4nc(N5CC(=O)NC5=O)c(F)cc4o3)NC(=O)NC1=O)C2"
  Ki [nM]: 0.4
- structure smiles: "COc1ccc2c(c1)C(=O)N(C[C@@]1(c3cn4cccnc4n3)NC(=O)NC1=O)C2"
  Ki [nM]: 1.9

P = COc1ccc2c(c1)C(=O)N(C[C@@]1(c3cn4ccccc4n3)NC(=O)NC1=O)C2
Q = COc1ccc2c(c1)C(=O)N(C[C@@]1(c3cc4ncccc4[nH]3)NC(=O)NC1=O)C2
R = CNC(=O)c1cnc2cc([C@]3(CN4Cc5ccc(OC)cc5C4=O)NC(=O)NC3=O)oc2c1
S = COc1ccc2c(c1)C(=O)N(C[C@@]1(c3cc4cnc(C(F)(F)F)cc4o3)NC(=O)NC1=O)C2
Sequence the entries by Ki, beginning with the highest number. Please respond by ranking the labels in the order requested. Q, P, R, S

1 = COc1ccc2c(c1)C(=O)N(C[C@@]1(c3cn4ccsc4n3)NC(=O)NC1=O)C2
2 = COc1ccc2c(c1)C(=O)N(C[C@@]1(c3cc4cnccc4o3)NC(=O)NC1=O)C2
3 = COc1ccc2c(c1)C(=O)N(C[C@@]1(c3cc4ccccc4o3)NC(=O)NC1=O)C2
Which order do these items take when sorted by rising Ki? List them. Please respond by ranking the labels in the order requested. 3, 2, 1
(3: 0.3 nM, 2: 0.7 nM, 1: 1.3 nM)
